Reported FACS MFI values follow for various binders
# SYSTEM UNDER TEST: T1, Macaca fascicularis CD276 (Macaca fascicularis)
# T1 construct: whole, on cells; also called cynomolgus monkey CD276; cynoCD276
# PROCEDURE SUMMARY: FACS on CHO-S-cynoCD276 cells
Reply with just the number.

1) 24-C10-F9-G7 (antibody, V domains shown, mouse monoclonal antibody (hybridoma)) VH: EVQLQESGPELVRPGVSVKISCKGSGYTFTDHTMHWVKESHAQSLEWIGVISTYYGNTNYNQNFKGKATLTVDKSSSTAYMELAGLTSEDSAIYYCARASYGSGYGPYYWYFDVWGAGTTVTVSS VL: DIQMTQSPASLFASVGETVTITCRASEKIYSYLAWYFQKQGKSPQFLVYNANALAEGVPSRFSGSGSGTQFSLKINSLQPEDFGTYYCQHHYGTPVTFGAGSKLELK
15200
2) 21-B3-B1-H5 (antibody, V domains shown, mouse monoclonal antibody (hybridoma)) VH: QIQLVQSGPELKKPGETVKISCKASGYIFRNYGMNWVKQAPGKGLKWMGWINSYTGKPTYVDDFKGRFAFSLETSASTAYLQINNLKNEDMATYFCARDDGYWYTMDYWGQGTSVTVSS VL: DVVMTQTPLSLPVSLGDQASISCRSSQSLVHSNGHTYLHWYLQKPGQSPKLLIYKVSNRFSGVPDRFSGSGSGTDFTLKISRVEAEDLGVYFCSQSTHVPWTFGGGTKLEIK
20200
3) 13-A8-C4-G1 (antibody, V domains shown, mouse monoclonal antibody (hybridoma)) VH: QVQLQQPGAELVKPGASMKLSCKASGYIFTSNWMHWVKQRPGQGLEWIGMIHPNSGTTSYNEKFKNKAKLTVDKSSSTAYVQLSSLTSEDSAVYYCAGPTTTRRFYPMDYWGQGTSVTVSS VL: QAVVTQESALTTSPGETVTLTCRSSTGAVTTSNYANWVQEKPDHLFTGLIGGTNNRAPGVPARFSGSLIGDKAALTITGAQTEDEAIYFCALWYSNHFIFGSGTKVTVL
95800

Ask | Identify measured FACS MFI associated with 9-G12-D6-A11 (antibody, V domains shown, mouse monoclonal antibody (hybridoma)) VH: DVQLQVSGPGLVKPSQSLSLTCSVAGYSITSDYYWNWIRQFPGNKLEWMGYISYDGTNNYNPSLKNRISITRDTSKGQFFLKFNSVTTEDTATYYCARGKDGSYYFDYWGQGTTLTVSS VL: QAVVTQESALTTSPGGTVILTCRSSTGAVTTSNYANWVQEKPDHLFTGLIGGTSNRAPGVPVRFSGSLIGDKAALTITGAQTEDDAMYFCALWYRTHYVFGGGTMVTVL
Reply | 35700

All values here come from patent US20240400689A1.
